- tested_target: EP2 S28A (Homo sapiens, UniProt P43116, S28A)
- Construct: The full-length EP2 or EP4 was cloned into the pcDNA3.1 vector; FLAG (N)
- Sequence (P43116 whole entry S28A): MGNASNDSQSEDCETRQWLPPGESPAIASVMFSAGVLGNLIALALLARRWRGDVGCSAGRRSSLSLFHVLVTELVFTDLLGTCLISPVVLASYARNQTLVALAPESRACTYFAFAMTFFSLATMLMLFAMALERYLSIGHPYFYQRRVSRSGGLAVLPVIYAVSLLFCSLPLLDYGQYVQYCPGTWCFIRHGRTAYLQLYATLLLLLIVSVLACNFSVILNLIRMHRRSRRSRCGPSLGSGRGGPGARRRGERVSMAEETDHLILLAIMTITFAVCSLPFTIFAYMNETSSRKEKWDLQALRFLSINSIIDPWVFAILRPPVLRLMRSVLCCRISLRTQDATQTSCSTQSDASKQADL
- assay_summary: GloSensor cAMP assay, antagonism of PGE2-induced cAMP
- Protocol: The full-length EP2 or EP4 was cloned into the pcDNA3.1 vector (Invitrogen), incorporating an N-terminal FLAG tag. AD293 cells were seeded in six-well plates containing DMEM supplemented with 10% dialyzed FBS 1 day prior to transfection. Following overnight growth, cells were transfected with a 1:1 ratio of receptor construct and GloSensor22F cAMP biosensor (Promega) plasmids. […]
parameter: IC50 (nM)

1. CCc1nnc(NS(=O)(=O)c2ccc(NC(=S)NC(=O)/C=C/c3ccc(F)cc3)cc2)s1 [TG6-129] : 36.3
